- tested.on: Bovine arginase (Bos taurus, UniProt Q2KJ64)
- Sequence (Q2KJ64 whole entry): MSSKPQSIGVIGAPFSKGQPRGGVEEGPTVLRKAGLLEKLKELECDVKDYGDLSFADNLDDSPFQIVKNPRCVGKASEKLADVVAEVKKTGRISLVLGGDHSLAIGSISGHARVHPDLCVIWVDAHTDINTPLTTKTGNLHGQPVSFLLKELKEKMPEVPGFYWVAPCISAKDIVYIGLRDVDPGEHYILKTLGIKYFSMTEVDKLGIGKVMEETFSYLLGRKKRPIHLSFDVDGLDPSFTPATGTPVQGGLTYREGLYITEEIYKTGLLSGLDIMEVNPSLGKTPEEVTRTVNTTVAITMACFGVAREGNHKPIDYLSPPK
- procedure.text: Substrate specificity (urea detection), bovine arginase
- Assay type: biochemical
- measurement.setup: 250 mM substrate, pH 9.6
measured.attribute: activity relative to that obtained with L-arginine

{"substance.smiles": "N=C(N)NOCC[C@H](N)C(=O)O", "measured.result": "(0.2%)"}
{"substance.smiles": "N=C(N)NCCCCN", "measured.result": "(0.2%)"}

---

- Test system: LeARG2
- procedure.text: Effect of various compounds on arginase activity, LeARG2
- Assay type: biochemical, Lycopersicon esculentum (tomato)
- measurement.setup: compound 5.0 mM, 25 mM L-arginine; % of control reaction

{"compound": "O=C(O)CS [Mercaptoacetate]", "Relative activity (%)": "26%"}
{"compound": "NCCC[C@H](N)C(=O)O [L- Ornithine]", "Relative activity (%)": "88%"}
{"compound": "CC(S)C(=O)O (stereo not shown) [2-Mercaptopropionate]", "Relative activity (%)": "38%"}
{"compound": "O=C(O)CCS [3 -Mercaptopropionate]", "Relative activity (%)": "26%"}

---

- tested.on: tomato arginase
- procedure.text: Inhibition of tomato arginase by NOHA
- Format: biochemical, Lycopersicon esculentum (tomato)
- measurement.setup: plant enzymes (LeARG1 and LeARG2)
pKi: −log10 of the molar value.

{"molecule": "NC(=NCCC[C@H](N)C(=O)O)NO [L-NOHA, N^G-hydroxy-L-arginine]", "pKi": "~4.85"}
